The reported numbers originate from patent US20200131159A1.

target: human mAChR M1 (Homo sapiens, UniProt P11229); construct: hM1 and hM4 cDNAs were purchased from Missouri S&T cDNA Resource; host or cells: CHO-K1 cells, stably transfected with Lipofectamine2000; assay: mAChR M1 cell-based functional assay (calcium mobilization, PAM mode, EC20 acetylcholine); conditions: CHO-K1 cells expressing hM1; EC20 acetylcholine response; calcium flux (Fluo-4)
Endpoint: Emax (%)

In [3]: df
Out[3]:
                               entry_smiles  endpoint  obs_value
0  O=C(NC1CC2(COC2)C1)c1cc(Cc2ccc(-n3cccn3)cc2)cc2cccnc12      Emax         67
1  O=C(N[C@H]1CC[C@@H]1O)c1cc(Cc2ccc(-n3cccn3)cc2)cc2cccnc12      Emax         57
2  Cn1ccc(-c2ccc(Cc3cc(C(=O)N[C@H]4CCCC[C@@H]4O)c4ncccc4c3)cn2)n1      Emax         82
3  Cn1ccc(-c2ccc(Cc3cc(C(=O)N[C@H]4CCC[C@@H]4O)c4ncccc4c3)cn2)n1      Emax         82
4  Cc1c(Cc2ccc(-n3cccn3)cc2)cc(C(=O)N[C@H]2CCOC[C@@H]2O)c2ncccc12      Emax         77
5  O=C(NC1CCOCC1)c1cc(Cc2ccc(-n3cccn3)cc2)cc2cccnc12      Emax         45
6  Cn1ccc(-c2ccc(Cc3cc(C(=O)N[C@H]4CCOC[C@@H]4O)c4ncccc4c3)cn2)n1      Emax         79
7  Cc1nc(-c2ccc(Cc3cc(C(=O)N[C@H]4CCCCC[C@@H]4O)c4ncccc4c3)cc2)co1      Emax         65

---

Target: human mAChR M1 (Homo sapiens, UniProt P11229)
Construct: hM1 and hM4 cDNAs were purchased from Missouri S&T cDNA Resource; host or cells: CHO-K1 cells, stably transfected with Lipofectamine2000
Sequence (P11229 1-460): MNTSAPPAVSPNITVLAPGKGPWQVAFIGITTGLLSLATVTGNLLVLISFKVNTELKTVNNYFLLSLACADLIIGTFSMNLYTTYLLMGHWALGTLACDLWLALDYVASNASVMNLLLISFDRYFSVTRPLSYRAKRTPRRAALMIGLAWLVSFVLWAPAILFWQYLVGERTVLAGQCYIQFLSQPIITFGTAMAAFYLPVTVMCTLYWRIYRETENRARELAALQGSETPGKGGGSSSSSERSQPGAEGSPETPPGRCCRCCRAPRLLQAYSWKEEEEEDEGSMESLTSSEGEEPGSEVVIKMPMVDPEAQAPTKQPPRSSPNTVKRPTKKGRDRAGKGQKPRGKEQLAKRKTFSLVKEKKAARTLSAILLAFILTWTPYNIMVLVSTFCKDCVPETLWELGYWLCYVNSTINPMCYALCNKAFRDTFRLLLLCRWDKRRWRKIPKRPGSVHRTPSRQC
Assay: mAChR M1 cell-based functional assay (calcium mobilization, PAM mode, EC20 acetylcholine)
Conditions: CHO-K1 cells expressing hM1; EC20 acetylcholine response; calcium flux (Fluo-4)
// reported Emax per item
Endpoint: Emax (%)

>>> df
                                   compound  units_text  obs_value
0  Cc1nc(-c2ccc(Cc3cc(C(=O)N[C@H]4CCCC[C@@H]4O)c4ncccc4c3C)cc2)co1 [compound 34]           %         74
1  Cc1c(Cc2ccc(-c3ccn(C)n3)nc2)cc(C(=O)N[C@H]2CCCC[C@@H]2O)c2ncccc12 [compound 30]           %         72
2  Cc1c(Cc2ccc(-c3ccn(C)n3)nc2)cc(C(=O)NC2CCOCC2)c2ncccc12 [compound 31]           %         67
3  Cn1ccc(-c2ccc(Cc3cc(C(=O)NC4CC5(COC5)C4)c4ncccc4c3)cn2)n1 [compound 14]           %         73

---

target: human mAChR M1 (Homo sapiens); construct: hM1 and hM4 cDNAs were purchased from Missouri S&T cDNA Resource; host or cells: CHO-K1 cells, stably transfected with Lipofectamine2000; assay: mAChR M1 cell-based functional assay (calcium mobilization, PAM mode, EC20 acetylcholine); details: CHO-K1 cells expressing hM1; EC20 acetylcholine response; calcium flux (Fluo-4)
// reported Emax per item
Endpoint: Emax (%)

>>> df
                                   molecule             measurement_target  obs_value
0  Cn1ccc(-c2ccc(Cc3cc(C(=O)N[C@H]4CCCCC[C@@H]4O)c4ncccc4c3)cn2)n1 [compound 10]  human mAChR M1 (Homo sapiens)         84
1  Cc1c(Cc2ccc(-n3cccn3)cc2)cc(C(=O)NC2CCOCC2)c2ncccc12 [compound 28]  human mAChR M1 (Homo sapiens)         41
2  O=C(NCC1CCOCC1)c1cc(Cc2ccc(-n3cccn3)cc2)cc2cccnc12 [compound 8]  human mAChR M1 (Homo sapiens)         49
3  Cn1cc2c(-c3cc(F)c(Cc4cc(C(=O)N[C@H]5CCCC[C@@H]5O)c5ncccc5c4)c(F)c3)cccc2n1 [compound 22]  human mAChR M1 (Homo sapiens)         42
4  Cc1nc(-c2ccc(Cc3cc(C(=O)N[C@H]4CCCC[C@@H]4O)c4ncccc4c3)cc2)co1 [compound 18]  human mAChR M1 (Homo sapiens)         82
5  Cn1ccc(-c2ccc(Cc3cc(C(=O)NC4CCOCC4)c4ncccc4c3)cn2)n1 [compound 15]  human mAChR M1 (Homo sapiens)         66
6  O=C(N[C@H]1CCCCC[C@@H]1O)c1cc(Cc2ccc(-n3cccn3)cc2)cc2cccnc12 [compound 7]  human mAChR M1 (Homo sapiens)         87
7  Cc1nc(-c2ccc(Cc3cc(C(=O)N[C@H]4CCC[C@@H]4O)c4ncccc4c3)cc2)co1 [compound 19]  human mAChR M1 (Homo sapiens)         61

---

target: human mAChR M1 (Homo sapiens, UniProt P11229); construct: hM1 and hM4 cDNAs were purchased from Missouri S&T cDNA Resource; host or cells: CHO-K1 cells, stably transfected with Lipofectamine2000; experiment: mAChR M1 cell-based functional assay (calcium mobilization, PAM mode, EC20 acetylcholine); conditions: CHO-K1 cells expressing hM1; EC20 acetylcholine response; calcium flux (Fluo-4)
// reported Emax per item
Endpoint: Emax (%)

>>> print(df.to_string())
                               entry_smiles  endpoint  obs_value
0  Cc1c(Cc2ccc(-n3cccn3)cc2)cc(C(=O)N[C@H]2CCC[C@@H]2O)c2ncccc12      Emax         81
1  O=C(N[C@H]1CCCC[C@@H]1O)c1cc(Cc2ccc(-n3cccn3)cc2)cc2cccnc12      Emax         81
2  Cc1nc(-c2ccc(Cc3cc(C(=O)N[C@H]4CCCCC[C@@H]4O)c4ncccc4c3C)cc2)co1      Emax         75
3  Cc1nc(-c2ccc(Cc3cc(C(=O)N[C@H]4CCOC[C@@H]4O)c4ncccc4c3C)cc2)co1      Emax         69
4  Cn1cc2c(-c3cc(F)c(Cc4cc(C(=O)N[C@H]5CCOC[C@@H]5O)c5ncccc5c4)c(F)c3)cccc2n1      Emax         67
5  Cn1ccc(-c2ccc(Cc3cc(C(=O)N[C@H]4CC[C@@H]4O)c4ncccc4c3)cn2)n1      Emax         75
6  Cc1nc(-c2ccc(Cc3cc(C(=O)NC4CC5(COC5)C4)c4ncccc4c3)cc2)co1      Emax         48
7  O=C(N[C@H]1CCC[C@@H]1O)c1cc(Cc2ccc(-n3cccn3)cc2)cc2cccnc12      Emax         76

---

// reported Emax per item
Target: human mAChR M1 (Homo sapiens, UniProt P11229)
Construct: hM1 and hM4 cDNAs were purchased from Missouri S&T cDNA Resource; host or cells: CHO-K1 cells, stably transfected with Lipofectamine2000
Assay: mAChR M1 cell-based functional assay (calcium mobilization, PAM mode, EC20 acetylcholine)
Details: CHO-K1 cells expressing hM1; EC20 acetylcholine response; calcium flux (Fluo-4)
Procedure: Chinese hamster ovary (CHO-K1) cells stably expressing rat (r)M1 were purchased from the American Type Culture Collection and cultured according to their indicated protocol. […] Calcium flux was measured using the Functional Drug Screening System (FDSS) 6000 (Hamamatsu Corporation, Tokyo, Japan) as an increase in the fluorescent static ratio. […] Agonist activity was analyzed as a concentration-dependent increase in calcium mobilization upon compound addition. […]
Endpoint: Emax (%)

>>> print(df.to_string())
                               entry_smiles  obs_value
0  Cc1c(Cc2ccc(-n3cccn3)cc2)cc(C(=O)N[C@H]2CC[C@@H]2O)c2ncccc12         73
1  O=C(N[C@H]1CCOC[C@@H]1O)c1cc(Cc2ccc(-n3cccn3)cc2)cc2cccnc12         80
2  Cc1nc(-c2ccc(Cc3cc(C(=O)N[C@H]4CCOC[C@@H]4O)c4ncccc4c3)cc2)co1         86
3  Cc1c(Cc2ccc(-n3cccn3)cc2)cc(C(=O)N[C@H]2CCCCC[C@@H]2O)c2ncccc12         66
